# target-or-system: c-KIT (Homo sapiens)
# Sequence (P10721 26-976): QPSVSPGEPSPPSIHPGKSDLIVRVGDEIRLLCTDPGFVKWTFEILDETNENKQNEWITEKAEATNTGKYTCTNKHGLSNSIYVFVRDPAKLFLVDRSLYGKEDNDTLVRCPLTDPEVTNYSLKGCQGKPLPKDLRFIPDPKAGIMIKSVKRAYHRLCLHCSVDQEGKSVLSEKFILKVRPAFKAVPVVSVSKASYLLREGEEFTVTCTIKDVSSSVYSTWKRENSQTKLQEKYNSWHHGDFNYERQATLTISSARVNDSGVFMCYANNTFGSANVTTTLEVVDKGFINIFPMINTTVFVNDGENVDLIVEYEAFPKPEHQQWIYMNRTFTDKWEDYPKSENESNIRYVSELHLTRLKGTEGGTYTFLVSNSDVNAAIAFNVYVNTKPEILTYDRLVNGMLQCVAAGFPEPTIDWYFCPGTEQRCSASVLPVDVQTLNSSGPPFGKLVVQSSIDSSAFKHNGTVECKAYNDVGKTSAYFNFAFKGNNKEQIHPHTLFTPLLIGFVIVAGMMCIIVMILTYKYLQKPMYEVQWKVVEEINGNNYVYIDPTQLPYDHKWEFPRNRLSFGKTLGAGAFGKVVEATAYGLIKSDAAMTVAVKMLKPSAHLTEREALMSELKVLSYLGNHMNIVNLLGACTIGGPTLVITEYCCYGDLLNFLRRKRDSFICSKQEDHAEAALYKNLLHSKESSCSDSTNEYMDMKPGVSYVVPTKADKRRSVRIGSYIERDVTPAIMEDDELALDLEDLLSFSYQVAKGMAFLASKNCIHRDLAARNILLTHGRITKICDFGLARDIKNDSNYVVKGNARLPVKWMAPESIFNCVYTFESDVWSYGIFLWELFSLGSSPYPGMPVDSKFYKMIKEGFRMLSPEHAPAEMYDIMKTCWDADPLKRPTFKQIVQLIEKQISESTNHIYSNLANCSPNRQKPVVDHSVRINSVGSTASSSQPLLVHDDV
# protocol-text: AlphaScreen kinase assay with recombinant enzyme, c-KIT
# assay-context: 100ATP, 8pt, GMean
pIC50: −log10 of the molar value.

# compound, pIC50
data = [
    ("C#Cc1cc2cc(-c3cccc(S(=O)(=O)NC4CC4)c3)cnc2[nH]1 [Compound P-0004]", "5.00 to 10.00"),
    ("CN(C)S(=O)(=O)Nc1cccc(-c2cnc3[nH]c(-c4ccccc4)cc3c2)c1 [Compound P-0007]", "4.30 to 5.00"),
    ("CS(=O)(=O)N1CCC(NS(=O)(=O)c2cccc(-c3cnc4[nH]c(-c5ccccc5)cc4c3)n2)C1 (centres unmarked) [Compound P-0107]", "4.00 to 4.30"),
    ("CCNC(=O)NC1CCN(C(=O)c2cccc(-c3cnc4[nH]c(-c5ccccc5)cc4c3)n2)CC1 [Compound P-0031]", "5.00 to 10.00"),
    ("COC1CCN(C(=O)c2cccc(-c3cnc4[nH]c(-c5ccccc5)cc4c3)n2)CC1 [Compound P-0098]", "4.00 to 4.30"),
    ("CN[C@@H]1CCN(C(=O)c2cccc(-c3cnc4[nH]c(-c5ccccc5)cc4c3)n2)C1 [Compound P-0058]", "5.00 to 10.00"),
    ("CNC1CCN(C(=O)c2n[nH]c3ccc(-c4cnc5[nH]c(-c6ccccc6)cc5c4)cc23)CC1 [Compound P-0044]", "5.00 to 10.00"),
    ("NC1CCCN(C(=O)c2cccc(-c3cnc4[nH]c(-c5ccccc5)cc4c3)n2)C1 (centres unmarked) [Compound P-0067]", "5.00 to 10.00"),
    ("NC1CCN(S(=O)(=O)c2cccc(-c3cnc4[nH]c(-c5ccccc5)cc4c3)n2)CC1 [Compound P-0073]", "5.00 to 10.00"),
    ("O=C(NC1CCNC1)c1cccc(-c2cnc3[nH]c(-c4ccccc4)cc3c2)n1 (centres unmarked) [Compound P-0045]", "5.00 to 10.00"),
    ("N#CC1CCN(C(=O)c2cccc(-c3cnc4[nH]c(-c5ccccc5)cc4c3)n2)C1 (centres unmarked) [Compound P-0105]", "4.30 to 5.00"),
    ("O=C(Nc1cccc(-c2cnc3[nH]c(-c4ccccc4)cc3c2)n1)C1CNC1 [Compound P-0084]", "5.00 to 10.00"),
    ("O=S(=O)(NC1CCNC1)c1cccc(-c2cnc3[nH]c(-c4ccccc4)cc3c2)n1 (centres unmarked) [Compound P-0072]", "5.00 to 10.00"),
    ("NC1CCN(C(=O)c2n[nH]c3ccc(-c4cnc5[nH]c(C6=CCN(C(=O)C7CC7)C6)cc5c4)cc23)CC1 [Compound P-0074]", "4.30 to 5.00"),
    ("NC1CCN(C(=O)c2cccc(-c3cnc4[nH]c(-c5ccccc5)cc4c3)n2)CC1 [Compound P-0013]", "5.00 to 10.00"),
    ("O=C(c1cccc(-c2cnc3[nH]c(-c4ccccc4)cc3c2)n1)N1CCC(F)(F)CC1 [Compound P-0089]", "4.00 to 4.30"),
    ("N#CC1CCN(C(=O)c2cccc(-c3cnc4[nH]c(C5=CCCCC5)cc4c3)n2)C1 (centres unmarked) [Compound P-0120]", "5.00 to 10.00"),
    ("CNC1CCN(C(=O)c2cccc(-c3cnc4[nH]c(-c5ccnc(OC)c5)cc4c3)n2)C1 (centres unmarked) [Compound P-0060]", "5.00 to 10.00"),
    ("CC(C)(C#N)CNS(=O)(=O)c1cccc(-c2cnc3[nH]c(-c4ccccc4)cc3c2)n1 [Compound P-0108]", "4.00 to 4.30"),
    ("N#CCCNC(=O)c1cccc(-c2cnc3[nH]c(-c4ccccc4)cc3c2)n1 [Compound P-0099]", "4.00 to 4.30"),
]
